Tested on: COLO 205 colon
Experiment: NCI tumour cell line growth inhibition, 48 h
measurement kind: TGI (µM)
Numeric only. Scale: µM

Worked examples, 4 molecules total:
| molecule | readout value |
| --- | --- |
| O=C(/C=C/c1cccs1)Nc1ncc(Cc2ccccc2F)s1 | 26.9 |
| Fc1cc(Nc2ccc3c(OCCCN4CCOCC4)cccc3n2)ccc1Cl | 3.43 |
| O=C(Nc1ccc(-c2nc3ccc(NC(=O)c4ccc(Cl)cc4)cc3[nH]2)cc1)c1ccc(Cl)cc1 | 6.54 |
| CCCCC[C@@H]1OC(=O)[C@@]2(CC3c4ccccc4C2c2ccccc23)[C@H]1C(=O)OC | 30.5 |

Input line: Form field: reported TGI of COS(=O)CCOC(=O)c1ccccc1SSc1ccccc1C(=O)OCCS(=O)OC (stereo unspecified)
Output line: 49.1

====

Measured TGI of individual entries
System: SF-268 CNS
Assay: NCI tumour cell line growth inhibition, 48 h

Input line: Form field: reported TGI of CCOc1cc(C=Nc2ccc(Oc3ccc(Cl)cc3)c(Cl)c2)ccc1O
Output line: 32 µM

Input line: Another compound to check: COc1ccccc1OCC(COC(=O)Nc1ccc(C)cc1)OC(=O)Nc1ccc(C)cc1 (stereo unspecified)
Output line: 46.2 µM

Input line: Another compound to check: C/C(=N\N=C(N)N)c1sc(-c2nc(C)c(/C(C)=N/N=C(N)N)s2)nc1C
Output line: > 100 µM

====

Measured TGI of individual entries
Test system: HCC-2998 colon
Test: NCI tumour cell line growth inhibition, 48 h
Numeric only. Scale: µM

Worked examples, 2 compounds total:
| line notation | system tested | TGI (µM) |
| --- | --- | --- |
| CCc1ccc(/C=C2/SC(=S)NC2=O)cc1 | HCC-2998 colon | 45.7 |
| Cc1cc(C(=O)NCCN(C)C)c2nc3ccccc3nc2c1 | HCC-2998 colon | 35.2 |

With those in mind, consider the next compound.
Input line: Form field: reported TGI of O=C(O)c1c(Cl)c(Cl)c(Cl)c(Cl)c1-c1c2cc(I)c(=O)c(I)c-2oc2c(I)c(O)c(I)cc12
Output line: 70.8

====

Measured GI50 of individual entries
Test system: A549 NSCLC
Assay: NCI tumour cell line growth inhibition, 48 h

Worked examples, 8 molecules total:
| molecule | readout value |
| --- | --- |
| O.O=[Se](=O)(O)O.[NH-]C1CCCCC1[NH-].[Pt+2] (stereo unspecified) | 5.26 µM |
| CCNC1=CC(=O)c2ncccc2C1=O | 1.2 µM |
| NC(=O)c1ccc(-c2c3ccccc3cc3c2ccc2ccccc23)cc1 | 4.7 µM |
| O=C(O)c1c(Cl)c(Cl)c(Cl)c(Cl)c1-c1c2cc(I)c(=O)c(I)c-2oc2c(I)c(O)c(I)cc12 | 177 µM |
| C/C(=N\n1c(N)c(C#N)c(-c2ccc(Cl)cc2)c(C#N)c1=O)c1cccnc1 | > 100 µM |
| Nc1ccccc1C#Cc1ccccc1C#CCCCCO | 18 µM |
| Cc1cc(I)cc(CN(C)CCCCN2CCCC2)c1O | 30.7 µM |
| Cc1ccc(Nc2ccnc(Nc3cccc(C(N)=O)c3)n2)cc1O | 8.44 µM |

Input line: Form field: reported GI50 of CCc1ccc(/C=C2/SC(=S)NC2=O)cc1
Output line: 20.8 µM

Input line: Another molecule to check: CCC[CH2][Ge]([CH2]CCC)([CH2]CCC)[O]C(=O)CCl
Output line: 1.01 µM

Input line: Another molecule to check: COCCOCCOCCOCCOc1ccc2c(c1)C(=O)c1nc3ncccc3c(=O)n1-2
Output line: 0.465 µM
